B1: Twister Ribozyme (parent)
chain: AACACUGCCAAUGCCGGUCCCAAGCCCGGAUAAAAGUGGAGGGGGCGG

Variants of: B1
Assay: self-cleavage, relative activity (ratio to wild type); higher = more cleavage; co-transcriptional
Each entry belongs to exactly one class, chosen by where its self-cleavage falls: lower range = under 0.1, middle range = from 0.1 up to 0.5, upper range = 0.5 and over

Worked examples, 10 variants total:
Record sequence | Class label
AACACUGCCAAUGCCGGUCCCAAGGCCGGAUAAAAGUGGAGGGGUCGG [C25G G45U] | middle range
AACUCUGCCAAUGCCGGUCCCAAGCCCGGAUAAAACUGGAGGGGGCGG [A4U G36C] | lower range
AACACUGCCAAUGCCGGUCCCAUGCCCGGAUAAAAGUGGAGGGGGAGG [A23U C46A] | middle range
AACAUUGCCAAUGCCGGUCCCAAGCCCGGAUAAAACUGGAGGGGGCGG [C5U G36C] | upper range
AACACCGCCAACGCCGGUCCCAAGCCCGGAUAAAAGUGGAGGGGGCGG [U6C U12C] | upper range
AACACUGCCAAUGCCGGUCCCAAGCCCGGUUAAAAGUGGACGGGGCGG [A30U G41C] | middle range
AAAACUGCCAAUGCCGGUCCCAAGCCCGGAUAAACGUGGAGGGGGCGG [C3A A35C] | middle range
AACACUGCCAAUGCCGGUCCCAAGCCCGGAUUAAAGUGGAGGCGGCGG [A32U G43C] | middle range
AACACUGCCAAUGCCGGUCCCAAGCCUGGAUAAAAGUGGAGGGGGAGG [C27U C46A] | upper range
AACACUGCCAAUGCCGGUCCCAAGCUCGGAUAAAAGUGGAGGGGGCGU [C26U G48U] | middle range

Ask: Which bin should I file AACACUGCCAAUGGCGGUCCCAAGUCCGGAUAAAAGUGGAGGGGGCGG [C14G C25U] under?
Reply: lower range

Ask: Sort AUCACUGCCAUUGCCGGUCCCAAGCCCGGAUAAAAGUGGAGGGGGCGG [A2U A11U] into one of the categories.
Reply: upper range

Ask: Any idea which band AACACUGCCAAUGCCGGACCCAAGCCCGUAUAAAAGUGGAGGGGGCGG [U18A G29U] is in?
Reply: middle range

Ask: Hi there! Could you help me figure out the category for AACUCUGCCAAUGCCGGUCCCAAGCCCGGAUAAAAGUGGCGGGGGCGG [A4U A40C] please?
Reply: lower range
